- TGT: human P2X3 receptor (hP2X3-MFCslow) (Homo sapiens, UniProt P56373, T13P/S15V/V16I)
- Sequence (P56373 6-364 T13P/S15V/V16I): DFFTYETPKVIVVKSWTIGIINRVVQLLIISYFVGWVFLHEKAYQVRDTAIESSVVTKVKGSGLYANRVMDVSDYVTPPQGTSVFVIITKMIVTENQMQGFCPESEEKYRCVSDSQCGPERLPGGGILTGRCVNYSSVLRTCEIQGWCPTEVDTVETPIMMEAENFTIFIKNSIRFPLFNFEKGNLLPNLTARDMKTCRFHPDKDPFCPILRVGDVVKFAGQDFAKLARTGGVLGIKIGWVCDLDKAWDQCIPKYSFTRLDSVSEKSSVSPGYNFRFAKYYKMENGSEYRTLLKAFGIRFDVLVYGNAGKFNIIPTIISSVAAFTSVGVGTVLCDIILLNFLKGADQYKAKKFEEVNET
- MEASUREMENT_NOTES: SPA 3H-ATP saturation binding
pKd: −log10 of the molar value.

[
  {
    "COMPOUND": "Nc1ncnc2c1ncn2[C@@H]1O[C@H](COP(=O)(O)OP(=O)(O)OP(=O)(O)O)[C@@H](O)[C@H]1O [ATP]",
    "pKd": 8.48
  }
]
